# Test system: M14
# METHOD: NCI tumour cell line growth inhibition, 48 h
Calls of active or inactive are those of the source. No stated cut-off is given here; in the data, active = GI50 up to about 1.1 µM and inactive = higher.
Form entry, call: pick from active, inactive

Query string: Recorded call for CN1CCc2cc3c(c4c2C1C(O)c1ccccc1-4)OCO3 (stereo unspecified) ?
Result string: inactive

Query string: Entry `C/C(CC(=O)Nc1cccc([N+](=O)[O-])c1)=N/NC(N)=S` : call = ?
Result string: inactive

Query string: Which outcome was entered for the molecule `Cc1nc2ccccc2n1Cc1nnc(N)o1` in this test?
Result string: inactive

Query string: Would you mind telling me which call this test gave O=C1OCC2=C1C(c1ccc3c(c1)OCO3)c1cc3c(cc1O2)OCO3 (stereo unspecified) ?
Result string: active

Query string: Could you please tell me the result logged for `O=C1CNNC(CSc2nc3ccc(I)cc3c(=O)n2Cc2ccccc2)=N1` in this assay?
Result string: inactive

Query string: Give the logged outcome of this assay for the following molecule: `CC[C@](O)(C(=O)O)c1cc2n(c(=O)c1CO)Cc1cc3ccccc3nc1-2`
Result string: active

Query string: Which outcome did this test record for the molecule `Cc1ccc(S(=O)(=O)n2ccc(-c3ccc4ccn(S(=O)(=O)c5ccc(C)cc5)c4c3)c2)cc1` ?
Result string: inactive

Query string: Can you look up the reported call for `O=C1c2cccnc2-c2nccc3c2c1nc1cc(Br)ccc13` for me?
Result string: active

Query string: Give the logged outcome of this assay for the following molecule: O=C1OC2C=CCC1C2 (stereo unspecified)
Result string: inactive

Query string: Kindly provide the recorded test outcome for the following molecule: `COc1ccc(OC)c2c(=O)cc(-c3ccccc3)[nH]c12`
Result string: inactive

Query string: # lookup: test call for `Cc1ccc2c(O)cc(-c3ccc(Cl)s3)nc2n1`
Result string: active

* * *

# Test system: A498
# METHOD: NCI tumour cell line growth inhibition, 48 h
Active and inactive are the calls of the source. Cut-off read from the data, not from the text of the source: active = GI50 up to about 1.1 µM and inactive = higher.
MEASURED QUANTITY: GI50

// sample `O=C1C[C@@]23CCC4(CC2=CCC[C@H]3O1)OCCO4` , its GI50 was > 100 µM (inactive)

Entry CC(=O)[C@H]1CCC2[C@@H]3CC=C4C(O)C(OS(=O)(=O)O)CC[C@]4(C)C3CC[C@@]21C (stereo partly specified) ; GI50 = > 100 µM (inactive)

For record `COC(=O)CSc1cc(Cl)c(C)cc1S(=O)(=O)Nc1n[nH]c(N)n1` the listed GI50 is > 10 µM (inactive)

Short answer for `CCOC(=O)NC(=O)c1cn(CCN2CCN(C(=O)NCCCCCCNC(=O)N3CCN(CCn4cc(C(=O)NC(=O)OCC)c(=O)[nH]c4=O)CC3)CC2)c(=O)[nH]c1=O` : GI50 was > 100 µM (inactive)

Reported GI50 ( `Cc1ccc(CCC(=O)C(=O)O)s1` ) = 89.5 µM (inactive)

Data point: COc1ccc(C(CC(=O)c2ccc(O)cc2)C(C(=O)c2ccc(O)cc2)C(c2ccc(OC)cc2)C2C(=O)NC(=S)NC2=O)cc1 (stereo unspecified) ; GI50 = 38.9 µM (inactive)

* * *

Entries with reported GI50 on HCT-15

Record `COC(=O)c1sc2ncc3c(c2c1N)CCCCCC3` . Reported GI50: > 100 µM

Lab note: `CC1=NN=C(NCCN(C)C)C/C1=C/c1ccccc1Cl` gave GI50 of > 100 µM

Summary for this molecule, `O=c1[nH]c2cccccc-2c1-c1nc2ccccc2[nH]1` : GI50 is 21.9 µM

Item: `COC(=O)C(=O)c1cc2ccccc2n1S(=O)(=O)c1ccccc1` | GI50: > 100 µM

`Cc1nc2c(n1CC(C)C)C(=O)c1ccccc1C2=O` yielded GI50 of 37.5 µM

The reported value for `Cc1nc(O)nc2nc3cc(Cl)cc(Cl)c3c(NC(C)(CO)CO)c12` in terms of GI50 is > 100 µM

Form field GI50, entry O=c1ncccn1[C@@H]1O[C@H](CO)[C@H](O)C1O (some centres undefined) : > 93.1 µM

Reported GI50 of `O=C(O)CCC(O)=C1S(=O)(=O)OCCOS1(=O)=O` : > 100 µM

get_value(item= CC1NOC(=O)C1/N=N/c1cccc(Cl)c1 (centres undefined) , readout=GI50) returns 17.7 µM

Note to self: GI50 recorded for `CC(=C(C(=O)O)C(=O)O)c1cc(-c2cccs2)cc(-c2ccc(Cl)cc2)c1O` was 14 µM

Given item `O=C(/C=C1\Nc2ccccc2N\C1=C\C(=O)c1ccc(Cl)cc1)c1ccccc1` , the value recorded as its GI50 is 52.7 µM

Reported GI50 ( CC(=O)[C@H]1CCC2[C@@H]3CC=C4C(O)C(OS(=O)(=O)O)CC[C@]4(C)C3CC[C@@]21C (some centres undefined) ) = > 100 µM

Recorded GI50 (molecule COC1(OC)C2(Cl)CCC1(Cl)C(OC(C)=O)C2 (centres undefined) ): > 100 µM

Looking up `Cc1ccc2c(c1)Sc1ccc(/N=N/N(C)C)cc1N2C` , I see its GI50 listed as > 100 µM

The recorded GI50 for entry `COc1cc(OC)c(OC)cc1/C=C/c1nc2ccccc2s1` equals > 100 µM

get_value(item= `CCOC(=O)c1sc2c(c1OC(=O)c1cccs1)c(=O)n(-c1ccccc1)c(=S)n2-c1ccccc1` , readout=GI50) returns 14 µM

Briefly, GI50 measured for `Cc1nc2ccc(S(=O)(=O)Nc3ccccc3Cl)cc2c(=O)n1NC(=O)CNc1ccccc1Cl` : > 100 µM

Per the record, Nc1n[nH]c(N)n1 [GUANAZOLE] has GI50 of 7670 µM

Lab note: CN(C)C1(N(C)C)Oc2c(c(=O)n(C)c(=O)n2C)C(c2ccccc2)C1(F)F (centres undefined) gave GI50 of > 100 µM

The molecule identified as `O=C1C=C(c2c(O)ccc3ccccc23)c2cc(O)ccc2C1=O` registered its GI50 at 16.7 µM

The molecule listed as `CCOC(=O)c1ncn2c1[nH]c(=O)c1ccccc12` shows GI50 equal to > 100 µM

Quick note, GI50 for `COC(=O)c1c(C)cc(OC)c(C/C=C(\C)CCCc2coc(C=C(C)C)c2)c1OC` landed at > 100 µM

Entry `Clc1cc(Cl)cc(Nc2nc3ccccc3nc2-c2cccs2)c1` , GI50 reported as > 100 µM

C=C(C)C1C/C=C(/C)CCCC2(CCC3=C(CC(C(=C)C)C/C=C(/C)CCC3)O2)C(=O)C1 (centres undefined) has a reported GI50 of > 100 µM

Looking up `CCCCCCCC(=O)NCC(O)CNC(=O)CCCCCCC` , I see its GI50 listed as > 100 µM

Item: O=C(CC1(O)C(=O)Nc2c(Cl)ccc(Cl)c21)c1ccc2ccccc2c1 (centres undefined) | GI50: 6.19 µM

`CC(CCC(=O)O)(c1ccc(O)cc1)c1ccc(O)cc1` has a reported GI50 of > 100 µM

Noted for `COc1ccc(C(=O)/C=C/c2ccc(OCC(=O)N3CCN(c4ccccc4)CC3)cc2)cc1OC` : its GI50 reads 4.84 µM

`Cc1ccc(S(=O)(=O)n2ccc(-c3ccc4ccn(S(=O)(=O)c5ccc(C)cc5)c4c3)c2)cc1` yielded GI50 of > 100 µM

Short answer for `CS(=O)(=O)OCCN1CCN(C(=O)c2cccc3c(Nc4ccc(S(=O)(=O)N=C(N)N)cc4)c4ccccc4nc23)CC1` : GI50 was > 100 µM

Documented GI50 of `C(=N/Nc1ccccn1)/c1cccnc1` : > 100 µM

The molecule listed as `O=C1C=CC=C/C1=C1/SC(c2ccccc2)=C(O)N1c1ccccc1` shows GI50 equal to > 100 µM

Reported GI50 of `FC(F)(F)c1cccc(-c2nc3nc(Cl)c(Cl)nc3[nH]2)c1` : 2.64 µM

GI50 in this record for `CCCCSc1n/c(=C\c2ccc(N(C)C)cc2)c2nnnn12` : > 100 µM

GI50 measured on OC(CCN1CCCCC1)(c1ccccc1)c1ccccc1 [PRIDINOL] = > 100 µM

Entry `CCOC(CCNCC(OCC)OCC)OCC` , GI50 reported as > 10 µM

Data point: CCOC(=O)C(Oc1ccc(OC)c2c1C(=O)CCC2)c1ccccc1 (centres undefined) ; GI50 = > 100 µM

Given item CN1C(=O)CC(c2cccc(C3CC(=O)N(C)C3=O)n2)C1=O (centres undefined) , the value recorded as its GI50 is > 100 µM

Entry under test: `CCOC(=O)c1c(C)[n+]([O-])c2cc(Cl)c(Cl)cc2[n+]1[O-]` . Its GI50 was 14.3 µM

CCC1(OC(=O)CN)C(=O)OCc2c1cc1n(c2=O)Cc2cc3ccccc3nc2-1 (centres undefined) yielded GI50 of 0.149 µM

Form: molecule = CC(SC(=S)N1CCOCC1)C(=O)Nc1nnc(-c2ccc(Cl)cc2)o1 (centres undefined) ; GI50 = 20.7 µM

The measured GI50 associated with `FC(F)(F)c1ccc2nc(Nc3ccc(Cl)c(Cl)c3)c(-c3ccccc3)nc2c1` reads 0.659 µM

GI50 for `CCOC(=O)c1nc2ccccc2nc1Nc1ccc(OC)cc1` is > 100 µM

// GI50 value for `Cn1ncc2c(NCc3ccccc3)ncnc21` : > 100 µM
